Tested on: MATSS: scented mayweed (Matricaria chamomilla), pineappleweed (Matricaria matricarioides)
Experiment: Post-emergent Test III, herbicidal activity in wheat and barley
Format: in vivo
Settings: Matricaria chamomilla, post-emergence, 504 h; 140 g ai/ha; read-out: Visual Growth Reduction (%) 21 Days After Application MATSS
MEASURED METRIC: pest or weed control at 140 g/ha

// Nc1c(F)c(-c2ccc(Cl)c(F)c2)nc(C(=O)O)c1Cl [Compound 217] : pest or weed control at 140 g/ha value = 85 to 94%

// Nc1c(F)c(-c2ccc(Br)c(F)c2F)nc(C(=O)O)c1Cl [Compound 147] : pest or weed control at 140 g/ha value = 95 to 100%

// C=Cc1c(C(=O)O)nc(-c2ccc(Cl)c(F)c2)c(F)c1N [Compound 214] : pest or weed control at 140 g/ha value = 85 to 94%

// COC(=O)c1nc(-c2ccc(Br)c(F)c2F)cc(N)c1Cl [Compound 114] : pest or weed control at 140 g/ha value = 0 to 29%

// COC(=O)c1nc(-c2ccc(F)cc2)c(F)c(N)c1Cl [Compound 204] : pest or weed control at 140 g/ha value = 0 to 29%
